Protein target, amino acids: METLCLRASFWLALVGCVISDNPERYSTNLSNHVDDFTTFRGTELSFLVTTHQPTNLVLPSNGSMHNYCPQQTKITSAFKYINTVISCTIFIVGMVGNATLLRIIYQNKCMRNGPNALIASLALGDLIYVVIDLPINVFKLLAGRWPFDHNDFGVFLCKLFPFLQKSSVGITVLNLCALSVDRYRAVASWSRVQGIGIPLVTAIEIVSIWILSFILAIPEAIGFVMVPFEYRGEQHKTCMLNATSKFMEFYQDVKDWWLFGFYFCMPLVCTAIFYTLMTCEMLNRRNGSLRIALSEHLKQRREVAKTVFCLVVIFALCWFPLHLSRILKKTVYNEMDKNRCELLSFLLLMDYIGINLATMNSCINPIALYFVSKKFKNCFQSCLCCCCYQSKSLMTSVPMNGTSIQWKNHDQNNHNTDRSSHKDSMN
measureName: Ki (nM)
Answers are plain numbers, in nM.

(Q) Bench note: what Ki did CCCCN(CCCC)C(=O)CN1C[C@H](c2ccc3c(c2)CCO3)[C@@H](C(=O)O)[C@@H]1c1ccc(C)c(F)c1 (stereo in doubt; 8a) show?
(A) 0.039

----------
assay: Compound was evaluated for half life period when administered intravenously; type: ADME, organism-based; conditions: in vivo, iv
measureName: half-life
Mention the unit after the number when you answer.

(Q) Value lookup for half-life; key = CCCCN(CCCC)C(=O)CN1C[C@H](c2ccc3c(c2)CCO3)[C@@H](C(=O)O)[C@@H]1c1ccc(C)c(F)c1 (stereo in doubt; 8)
(A) 4.7 h
